molecular target: human dopamine D2 receptor (hD2R) (Homo sapiens, UniProt P14416); experiment: Human D2 receptor binding assay ([^3H]-Spiperone); details: CHO cells expressing hD2R, geometric mean of 2-5 determinations unless marked b (single determination)
Sequence (P14416 whole entry): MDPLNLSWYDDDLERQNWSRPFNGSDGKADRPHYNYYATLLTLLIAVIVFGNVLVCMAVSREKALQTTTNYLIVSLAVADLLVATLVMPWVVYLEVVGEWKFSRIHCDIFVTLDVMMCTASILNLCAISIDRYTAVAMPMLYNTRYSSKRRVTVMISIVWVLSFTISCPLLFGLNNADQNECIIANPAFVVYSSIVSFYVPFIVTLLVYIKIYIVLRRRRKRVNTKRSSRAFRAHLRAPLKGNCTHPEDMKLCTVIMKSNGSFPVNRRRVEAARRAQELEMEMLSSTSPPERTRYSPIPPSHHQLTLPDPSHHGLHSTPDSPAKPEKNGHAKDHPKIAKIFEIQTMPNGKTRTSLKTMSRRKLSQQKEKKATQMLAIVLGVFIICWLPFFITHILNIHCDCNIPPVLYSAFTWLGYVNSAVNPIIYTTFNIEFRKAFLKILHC
Entries and their Ki
Result Type: Ki

- Molecule: "COc1nc2c(cc1NS(=O)(=O)c1ccc(C3(F)CCC(OC)CC3)cc1)CCN(C)CC2 (single isomer, unassigned) [Example 93]"
  Result Type: "Ki"
  Value: "366 nM"
- Molecule: "CCCN1CCc2cc(NS(=O)(=O)c3ccc(OCC)cc3)c(OC)nc2CC1"
  Result Type: "Ki"
  Value: "337 nM"
- Molecule: "COc1nc2c(cc1NS(=O)(=O)c1ccc(OC3CCCC3)nc1C)CCN(C)CC2"
  Result Type: "Ki"
  Value: "4.07 nM"
- Molecule: "CCO[C@H]1C[C@H](c2ccc(S(=O)(=O)Nc3cc4c(nc3OC)CCN(C)CC4)cc2)C1"
  Result Type: "Ki"
  Value: "30.3 nM"

# credit: patent US10590128B2
